The reported numbers originate from patent US20100160255A1.

- Tested system: human ACC2 (Homo sapiens)
- Construct: made in house; host or cells: SF-9 insect cells, recombinant baculovirus BAC-ACC2(Nd)
- Method notes: ACC2 inhibitory activity (malachite green absorbance assay, recombinant ACC2(Nd))
- Type: biochemical
- Conditions: Table 9; recombinant human ACC2(Nd), N terminal deletion; 30° C.; absorbance 620 nm; read-out: IC50 (ACC2 inhibitory activity)
- Method: The ACC2 inhibitory activity of the compound of the present invention was evaluated by the following method. Human ACC2 gene was cloned by PCR using human skeletal muscle cDNA library (Clontech) as a template, and Primer 1 and Primer 2 shown below. Primer 1 and Primer 2 were prepared by adding recognition sequence of restriction enzymes SalI and XbaI based on the information of the base sequence (Genbank Accession U89344) of human ACC2 gene. […]
Experimental endpoint: log10(IC50) (log10 of the value in µM)
// stored as log10 of IC50 expressed in µM

Some compounds with known log10(IC50) results, for comparison:
CCNC(=O)Nc1sc2ccccc2c1C(=O)N1CCC(N2CCCC3(CC(=O)N(C)C3=O)C2)CC1 (stereo not drawn); -1.35
CCNC(=O)Nc1sc2ccccc2c1C(=O)N1CCC(N2CCCC3(CCN(CC)C3=O)C2)CC1 (stereo not drawn) [Example 400]; -1.89
CCNC(=O)Nc1sc2ccccc2c1C(=O)N1CCC(N2CCCC3(C2)OC(=O)N(CC)C3=O)CC1 (stereo not drawn) [Example 327]; -1.72
CCNC(=O)Nc1sc2ccccc2c1C(=O)N1CCC(N2CCCC3(C2)OC(=O)N(CC)C3=O)CC1 (racemic) [Example 228]; -1.39
CCNC(=O)Nc1sc(-c2ccccn2)cc1C(=O)N1CCC(N2CCCC3(C2)OC(=O)N(CC)C3=O)CC1 (stereo not drawn); -1.34

-- ask Data request, read-out log10(IC50), for CCN1C(=O)OC2(CCCN(C3CCN(C(=O)c4c(NC(N)=O)sc5ccccc45)CC3)C2)C1=O (stereo not drawn)
-- reply -1.31

---

- Tested system: human ACC2 (Homo sapiens, UniProt O00763)
- Construct: made in house; host or cells: SF-9 insect cells, recombinant baculovirus BAC-ACC2(Nd)
- Sequence (O00763 117-2458 limits assumed): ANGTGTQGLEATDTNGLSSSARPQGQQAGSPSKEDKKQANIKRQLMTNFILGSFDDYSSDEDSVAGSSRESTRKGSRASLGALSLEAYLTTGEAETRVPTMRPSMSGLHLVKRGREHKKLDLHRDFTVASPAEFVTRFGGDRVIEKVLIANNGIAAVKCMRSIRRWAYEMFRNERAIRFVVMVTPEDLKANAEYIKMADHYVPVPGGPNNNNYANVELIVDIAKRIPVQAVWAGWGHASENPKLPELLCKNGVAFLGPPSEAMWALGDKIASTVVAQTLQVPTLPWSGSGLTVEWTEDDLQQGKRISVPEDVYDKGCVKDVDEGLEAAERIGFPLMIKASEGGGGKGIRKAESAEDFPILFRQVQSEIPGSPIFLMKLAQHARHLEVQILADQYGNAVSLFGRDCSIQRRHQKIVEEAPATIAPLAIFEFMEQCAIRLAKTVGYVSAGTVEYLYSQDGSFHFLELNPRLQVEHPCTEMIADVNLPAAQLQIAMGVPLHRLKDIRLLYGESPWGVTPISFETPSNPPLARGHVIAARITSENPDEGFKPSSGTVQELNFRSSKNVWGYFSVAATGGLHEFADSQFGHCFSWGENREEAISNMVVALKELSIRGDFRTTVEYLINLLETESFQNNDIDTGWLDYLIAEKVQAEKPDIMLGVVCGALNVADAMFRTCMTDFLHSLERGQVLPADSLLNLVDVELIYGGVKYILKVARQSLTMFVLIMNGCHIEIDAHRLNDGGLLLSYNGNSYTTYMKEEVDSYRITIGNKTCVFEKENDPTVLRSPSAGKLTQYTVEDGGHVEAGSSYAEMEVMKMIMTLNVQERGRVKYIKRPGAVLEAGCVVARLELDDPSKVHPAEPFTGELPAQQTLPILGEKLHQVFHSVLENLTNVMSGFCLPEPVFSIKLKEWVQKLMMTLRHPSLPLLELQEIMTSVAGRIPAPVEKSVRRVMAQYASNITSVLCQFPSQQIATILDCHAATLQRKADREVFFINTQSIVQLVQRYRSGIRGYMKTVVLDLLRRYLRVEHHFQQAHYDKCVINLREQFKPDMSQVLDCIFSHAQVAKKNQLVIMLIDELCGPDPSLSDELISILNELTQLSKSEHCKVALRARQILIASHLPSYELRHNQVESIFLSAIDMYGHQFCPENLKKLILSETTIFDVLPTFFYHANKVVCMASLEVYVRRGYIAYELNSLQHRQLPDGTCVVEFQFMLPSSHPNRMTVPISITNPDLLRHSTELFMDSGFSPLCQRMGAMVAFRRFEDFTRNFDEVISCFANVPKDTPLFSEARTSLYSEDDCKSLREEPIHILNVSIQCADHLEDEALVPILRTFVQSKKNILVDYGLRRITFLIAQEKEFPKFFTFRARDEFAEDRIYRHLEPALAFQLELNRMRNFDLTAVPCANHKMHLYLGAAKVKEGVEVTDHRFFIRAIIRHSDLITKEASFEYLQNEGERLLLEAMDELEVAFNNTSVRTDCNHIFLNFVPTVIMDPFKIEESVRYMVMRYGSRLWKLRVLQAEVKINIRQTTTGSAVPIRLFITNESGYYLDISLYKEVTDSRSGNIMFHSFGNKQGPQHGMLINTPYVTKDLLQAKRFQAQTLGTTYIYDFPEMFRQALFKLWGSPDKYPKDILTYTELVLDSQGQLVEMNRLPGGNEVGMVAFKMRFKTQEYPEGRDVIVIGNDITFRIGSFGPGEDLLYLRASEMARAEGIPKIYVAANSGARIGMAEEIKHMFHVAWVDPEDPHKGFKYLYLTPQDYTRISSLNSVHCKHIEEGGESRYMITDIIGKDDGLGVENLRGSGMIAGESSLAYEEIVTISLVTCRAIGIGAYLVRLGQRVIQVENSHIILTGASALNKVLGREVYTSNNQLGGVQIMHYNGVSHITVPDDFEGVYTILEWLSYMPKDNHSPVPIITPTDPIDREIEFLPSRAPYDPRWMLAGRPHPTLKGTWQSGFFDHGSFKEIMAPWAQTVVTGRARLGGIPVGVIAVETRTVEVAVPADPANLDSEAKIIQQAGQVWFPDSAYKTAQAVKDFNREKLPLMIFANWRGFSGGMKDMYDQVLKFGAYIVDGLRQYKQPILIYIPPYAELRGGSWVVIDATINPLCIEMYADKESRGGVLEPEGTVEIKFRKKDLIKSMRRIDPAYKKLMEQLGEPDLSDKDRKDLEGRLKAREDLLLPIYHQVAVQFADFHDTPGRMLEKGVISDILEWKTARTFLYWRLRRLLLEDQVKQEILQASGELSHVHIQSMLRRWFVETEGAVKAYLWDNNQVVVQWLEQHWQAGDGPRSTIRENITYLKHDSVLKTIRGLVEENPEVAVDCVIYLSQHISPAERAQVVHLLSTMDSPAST
- Method notes: ACC2 inhibitory activity (malachite green absorbance assay, recombinant ACC2(Nd))
- Type: biochemical
- Conditions: Experimental Example 4; same manner as Experimental Example 2; read-out: IC50 values (ACC2 inhibitory activity)
pIC50: −log10 of the molar value.
Experimental endpoint: pIC50

Here's what some known entries look like.
CCNC(=O)Nc1sc(-c2ccccn2)cc1C(=O)N1CCC(N2CCCC3(C2)CC(C)(C)OC3=O)CC1 (centres unmarked); ≥ 8.00
CCNC(=O)Nc1sc(-c2ccc(C(=O)O)cc2)cc1C(=O)N1CCC(N2CCCC3(C2)CC(C)(C)OC3=O)CC1 (centres unmarked); ≥ 8.00
CCNC(=O)Nc1sc2ccccc2c1C(=O)N1CCC(N2CCCC3(C2)CC(C)(C)OC3=O)CC1 (single isomer, unassigned) [Example 319]; ≥ 8.00
CCNC(=O)Nc1sc2c(c1C(=O)N1CCC(N3CCCC4(C3)OC(=O)N(C(C)(C)C)C4=O)CC1)CCCC2=O (centres unmarked); ≥ 8.00

Lab note: next compound to report on.
-- ask Notebook entry, human ACC2 (Homo sapiens, UniProt O00763) assay: pIC50 of CCNC(=O)Nc1sc2ccccc2c1C(=O)N1CCC(N2CCCC3(C2)CC(C)(C)OC3=O)CC1 (centres unmarked) [Example 36] = ?
-- reply ≥ 8.00

---

- Tested system: human ACC2 (Homo sapiens)
- Construct: made in house; host or cells: SF-9 insect cells, recombinant baculovirus BAC-ACC2(Nd)
- Method notes: ACC2 inhibitory activity (malachite green absorbance assay, recombinant ACC2(Nd))
- Format: biochemical
- Conditions: Table 9; recombinant human ACC2(Nd), N terminal deletion; 30° C.; absorbance 620 nm; read-out: IC50 (ACC2 inhibitory activity)
Experimental endpoint: log10 IC50 (log10 of the value in nM)
Note: values are log10 of IC50 expressed in nM.

-- ask Look up log10 IC50 for this compound: CCN1C(=O)CC2(CCCN(C3CCN(C(=O)c4c(NC(N)=O)sc5ccccc45)CC3)C2)C1=O (centres unmarked) [Example 340]
-- reply 1.34

-- ask Tell me the measured log10 IC50 of CCN1C(=O)CC2(CCCN(C3CCN(C(=O)c4c(NC(=O)NC)sc5ccccc45)CC3)C2)C1=O (centres unmarked) , please.
-- reply 1.75

-- ask Need log10 IC50, item CNC(=O)Nc1sc2ccccc2c1C(=O)N1CCC(N2CCCC3(CCN(C(C)C)C3=O)C2)CC1 (centres unmarked)
-- reply 1.34

---

Each item that follows carries a reported pIC50.
- Tested system: human ACC2 (Homo sapiens, UniProt O00763)
- Construct: made in house; host or cells: SF-9 insect cells, recombinant baculovirus BAC-ACC2(Nd)
- Method notes: ACC2 inhibitory activity (malachite green absorbance assay, recombinant ACC2(Nd))
- Type: biochemical
- Conditions: Table 9; recombinant human ACC2(Nd), N terminal deletion; 30° C.; absorbance 620 nm; read-out: IC50 (ACC2 inhibitory activity)
Here pIC50 is given on a logarithmic scale as minus log10 of the concentration in mol/L.

Observe how each entry below is paired with its result.
CCNC(=O)Nc1cnc(-c2ccccc2)cc1C(=O)N1CCC(N2CCCC3(C2)CC(C)(C)OC3=O)CC1 (stereo not drawn) [Example 301]; 7.05
CCN1CCC2(CCCN(C3CCN(C(=O)c4c5ccccc5cc5ccccc45)CC3)C2)C1=O (stereo not drawn) [Example 1]; 6.85
CCNC(=O)Nc1sc(-c2ccc(C(=O)O)cc2)cc1C(=O)N1CCC(N2CCCC3(C2)CC(C)(C)OC3=O)CC1 (stereo not drawn) [Example 190]; 8.05
CCN1C(=O)OC2(CCCN(C3CCN(C(=O)c4c(NC(=O)NC)sc5ccccc45)CC3)C2)C1=O (stereo not drawn) [Example 347]; 7.47
CCCN1CCC2(CCCN(C3CCN(C(=O)c4c(NC(N)=O)sc5ccccc45)CC3)C2)C1=O (stereo not drawn) [Example 352]; 7.39
CC(C)NC(=O)Nc1sc2ccccc2c1C(=O)N1CCC(N2CCCC3(CC(=O)NC3=O)C2)CC1 (stereo not drawn) [Example 397]; 7.41

-- ask Param item = CC1(C)CC2(CN(C3CCN(C(=O)c4c5ccccc5cc5ccccc45)CC3)CCN2)C(=O)O1 (stereo not drawn) [Example 153] ; retrieve measured pIC50.
-- reply 7.12

-- ask Look at this molecule and give its reported pIC50. CC1(C)CC2(CCCN(C3CCN(C(=O)c4cc(-c5cccnc5)nc5ccccc45)CC3)C2)C(=O)O1 (stereo not drawn) [Example 92]
-- reply 6.96

-- ask Fill in the blank: the reported pIC50 of CCNC(=O)Nc1sc2ccccc2c1C(=O)N1CCC(N2CCCC3(C2)CC(C)(C)OC3=O)CC1 (stereo not drawn) [Example 36] is ____.
-- reply 8.10

---

- Tested system: human ACC2 (Homo sapiens)
- Construct: made in house; host or cells: SF-9 insect cells, recombinant baculovirus BAC-ACC2(Nd)
- Method notes: ACC2 inhibitory activity (malachite green absorbance assay, recombinant ACC2(Nd))
- Type: biochemical
- Conditions: Table 9; recombinant human ACC2(Nd), N terminal deletion; 30° C.; absorbance 620 nm; read-out: IC50 (ACC2 inhibitory activity)
Rule: IC50 below 20 nM gives Y, anything at or above gives N.

CC(C)N1C(=O)CC2(CCCN(C3CCN(C(=O)c4c(NC(N)=O)sc5ccccc45)CC3)C2)C1=O (centres unmarked); Y

-- ask Given the entry CCNC(=O)Nc1sc2ccccc2c1C(=O)N1CCC(N2CCCC3(C2)CC(C)(C)OC3=O)CC1 (single isomer, unassigned) [Example 319] , would its reported IC50 be below 20 nM?
-- reply Y

-- ask Is IC50 of CCNC(=O)Nc1sc2ccccc2c1C(=O)N1CCC(N2CCCC3(C2)N=C(C)N(CC)C3=O)CC1 (racemic) [Example 233] strictly below 20 nM?
-- reply Y

-- ask Determine if CCCN1C(=O)OC2(CCCN(C3CCN(C(=O)c4c(NC(N)=O)sc5ccccc45)CC3)C2)C1=O (centres unmarked) shows IC50 strictly lower than 20 nM.
-- reply N

-- ask Hi there! Is IC50 for CCNC(=O)Nc1sc(-c2ccccn2)cc1C(=O)N1CCC(N2CCCC3(C2)CC(C)(C)OC3=O)CC1 (centres unmarked) below 20 nM, do you know?
-- reply Y
